Tested on: HT29 colon
EXPERIMENTAL_DETAILS: NCI-60 one-dose screen, 48 h
EXPERIMENTAL_SETUP: 10 µM unless noted
The panel holds about 83,000 compounds, 20% with a hit somewhere; the sample as a whole holds those more often. The source made the active and inactive calls. The calls were made as follows: active = growth percent below 10; inactive = the rest.
Bench note: report the call from active, inactive

N#Cc1cnc2cc(OC[C@@H](O)CO)c(NC(=O)CC3CSSC3)cc2c1Nc1ccc(OCc2cccc(F)c2)c(Cl)c1 :: active

Q: Please indicate how the test categorized CC(C)(C)c1ccc(OCCCCCCCN2CCNCC2)cc1 .
A: active

Q: Follow-up item: Cc1cc(C)n(Cc2cc(C(C)(C)C)cc(C(C)(C)C)c2)c(=O)c1C#N
A: inactive

Q: Follow-up item: CCC(c1ccc(OC)cc1)C(CC)c1ccc(O)c(CN2CCCCC2)c1 (centres undefined)
A: inactive
